molecular target: Glucocorticoid receptor (Homo sapiens) (UniProt P04150); assay: GR-GFP Redistribution (AID 450); settings: U2OS GR-GFP nuclear translocation, laser cytometry, 2 h
Sequence (P04150 whole entry, looked up): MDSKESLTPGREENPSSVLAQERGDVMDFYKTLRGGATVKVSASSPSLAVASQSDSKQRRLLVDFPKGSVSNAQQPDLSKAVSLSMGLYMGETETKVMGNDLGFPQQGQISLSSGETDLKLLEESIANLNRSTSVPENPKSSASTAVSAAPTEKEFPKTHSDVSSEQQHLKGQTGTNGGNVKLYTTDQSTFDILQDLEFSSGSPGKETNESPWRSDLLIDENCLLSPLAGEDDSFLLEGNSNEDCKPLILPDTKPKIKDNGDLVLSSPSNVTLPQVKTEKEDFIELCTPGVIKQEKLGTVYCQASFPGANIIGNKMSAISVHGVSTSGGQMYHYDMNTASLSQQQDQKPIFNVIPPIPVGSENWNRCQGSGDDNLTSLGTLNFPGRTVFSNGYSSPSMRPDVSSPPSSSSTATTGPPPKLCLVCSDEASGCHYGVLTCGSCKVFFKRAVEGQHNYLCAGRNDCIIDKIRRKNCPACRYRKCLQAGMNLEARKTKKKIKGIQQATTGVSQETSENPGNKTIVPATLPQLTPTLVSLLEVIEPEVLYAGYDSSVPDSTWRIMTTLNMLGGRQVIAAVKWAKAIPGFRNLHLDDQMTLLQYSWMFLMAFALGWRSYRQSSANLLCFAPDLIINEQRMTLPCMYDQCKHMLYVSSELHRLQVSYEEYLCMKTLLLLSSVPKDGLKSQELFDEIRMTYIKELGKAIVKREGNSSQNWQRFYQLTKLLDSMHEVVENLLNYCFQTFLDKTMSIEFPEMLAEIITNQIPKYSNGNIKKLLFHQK
Active and inactive are the calls of the source.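 Rule for the calls: active = compounds whose dose series gives a full or clear partial fitted curve of increased nuclear translocation; inconclusive = weak partial curve or effect only at the top dose; inactive = no dose-dependent translocation response.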
Select the matching outcome among 1 for active, -1 for inactive

### Prompt Call for entry O=C(O)CC/C=C\CC[C@H]1[C@@H](N2CCCCC2)[C@@H](O)C[C@@H]1OCc1ccc(-c2ccccc2)cc1 :
### Response -1

### Prompt Call for entry O=C(O)CCC(=O)C(=O)O :
### Response -1

### Prompt Call for entry Cc1cc(C(=O)NNCc2ccccc2)no1 :
### Response -1

### Prompt Call for entry Nc1c(Br)cc(Br)cc1CNC1CCC(O)CC1 (centres undefined) :
### Response -1

### Prompt Call for entry CC1(C)S[C@@H]2[C@H](NC(=O)Cc3ccccc3)C(=O)N2[C@H]1C(=O)O :
### Response -1

---

experiment: qHTS assay for environmental chemicals that activate the Aryl hydrocarbon Receptor (AhR) signaling pathway (AID 651777); conditions: 1A2-DRE human hepatoma cells, luciferase, 24 h; hits give high values; note: % of control where 0% means no effect; nearly all actives have a fitted effect of over 15% in size
Inconclusive results are not listed.
Label rule, in plain words: activation of 0.6% and up is MET, under 0.6% is NOT MET.

Completed entries (count: 3):
[
  {
    "compound": "CC1=C2[C@@H]([C@H](C)CC[C@H]2/C=C(\\C)C(=O)O)[C@H](O)C1",
    "labelClass": "MET"
  },
  {
    "compound": "O=C(O)CCC(=O)C(=O)O",
    "labelClass": "NOT MET"
  },
  {
    "compound": "Nc1ccn([C@H]2CS[C@@H](CO)O2)c(=O)n1",
    "labelClass": "MET"
  }
]

Switching to the query record.
### Prompt Identify whether the reported activation of the following compound is 0.6% or greater: CCCCC(CC)COC(=O)CC(C(=O)OCC(CC)CCCC)S(=O)(=O)O (stereo not given)
### Response MET

---

target: Calcium and integrin-binding protein 1 (Homo sapiens) (UniProt Q99828); experiment: Primary qHTS for Identification of Calcium Integrin Binding Protein 1 (CIB1) Competitor (AID 1508620); settings: CIB1-GST / FITC-alphaIIb peptide fluorescence polarization; series mostly up to 57.7 µM;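 note: GST tagged CIB1 binding a fluorescein labelled alphaIIb integrin peptide tracer; top concentration of the series differs between compounds; % is set by controls: 0 for no effect and ±100 for the full control effect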
Sequence (Q99828 whole entry, looked up): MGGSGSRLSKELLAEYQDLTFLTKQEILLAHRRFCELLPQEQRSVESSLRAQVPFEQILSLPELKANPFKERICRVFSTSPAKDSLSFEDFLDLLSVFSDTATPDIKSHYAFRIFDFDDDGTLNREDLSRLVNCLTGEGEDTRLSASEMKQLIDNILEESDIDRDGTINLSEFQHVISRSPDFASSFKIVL
Records with an inconclusive call do not appear. Active and inactive are the calls of the source. Calls come from the whole dose curve; as a rule, active = well fitted inhibition curve with a large enough effect; inconclusive = small, poorly fitted or top-dose-only effect; inactive = flat fitted curve, though single readings scatter.
experimentalReadout: activity change, negative = inhibition

Some solved cases for reference:
[
  {
    "molecule": "CCOC(=O)c1c(C)nn(-c2cccc([N+](=O)[O-])c2)c1C",
    "experimentalReadout": "activity change, negative = inhibition",
    "result": "inactive"
  },
  {
    "molecule": "CC(=O)OC1C(O)CC(O[C@@H]2O[C@H](CO)[C@@H](O)[C@H](O)[C@H]2O)C2CCC3C(=O)OC(c4ccoc4)CC3(C)C21 (stereo not given in full)",
    "experimentalReadout": "activity change, negative = inhibition",
    "result": "inactive"
  },
  {
    "molecule": "CC(=O)O[C@@]1(C)C[C@@H](O)[C@]2(O)C=CO[C@@H](O[C@@H]3O[C@H](CO)[C@@H](O)[C@H](O)[C@H]3O)[C@@H]21",
    "experimentalReadout": "activity change, negative = inhibition",
    "result": "inactive"
  },
  {
    "molecule": "CC(=O)OC1C(O)C(C)=C(CCC(C)CC(=O)O)C2(C)CCCC(C)(C)C12 (stereo not given)",
    "experimentalReadout": "activity change, negative = inhibition",
    "result": "inactive"
  }
]

Quick request: activity change, negative = inhibition for each listed item, please.
1. CCC[C@@H]1C[C@@H](C(=O)N[C@H](C(C)Cl)[C@H]2O[C@H](SC)[C@H](O)[C@@H](O)[C@H]2O)N(C)C1 (stereo not given in full)
2. Cn1c(=O)c2nc(/C=C/c3cccc(Cl)c3)n(C)c2n(C)c1=O
3. O=c1c2ccccc2nc2n1CCC2O (stereo not given)
4. CC1(C)C[C@H]2C3=CCC4[C@@]5(C)CC[C@H](O[C@H]6O[C@H](C(=O)O)[C@@H](O)[C@H](O)[C@H]6O[C@H]6O[C@H](CO)[C@@H](O)[C@H](O)[C@H]6O[C@@H]6O[C@H](CO)[C@@H](O)[C@H](O)[C@H]6O)[C@](C)(CO)C5CC[C@@]4(C)[C@]3(C)CC[C@@]2(C)[C@H](O[C@@H]2OC[C@H](O)[C@H](OC3O[C@H](CO)[C@@H](O)[C@H](O)[C@H]3O)[C@H]2O)[C@@H]1O (stereo not given in full)
5. CC1=C2C(=O)O[C@@H](c3ccoc3)[C@]2(C)CCC1
6. CC(C)Nc1cc(-c2c[nH]c(C(=O)N[C@H](CO)c3cccc(Cl)c3)c2)c(Cl)cn1
7. CN1C(=O)N[C@@H](Cc2c[nH]c3c(Cl)cccc23)C1=O
8. CC1OC(OC2C(CO)OC(OCC3OC(OC(=O)C45CCC(C)(C)CC4C4=CCC6C7(C)CCC(OC8OC(C(=O)O)C(O)C(OC9OC(CO)C(O)C(O)C9O)C8O)C(C)(C)C7CCC6(C)C4(C)CC5)C(O)C(O)C3O)C(O)C2O)C(O)C(O)C1O (stereo not given)

### Response
1. inactive
2. inactive
3. inactive
4. -7.85% [at 12.4 µM] (inactive)
5. inactive
6. inactive
7. inactive
8. 0.696% [at 12.4 µM] (inactive)

// provenance: PubChem BioAssay (NCATS)
